System: P388 leukemia ip, CD2F1 mice, survival T/C
TEST_METHOD_NOTES: NCI In Vivo Anticancer Drug Screen. Data for tumor model P388 Leukemia (intraperitoneal) in CD2F1 (CDF1) mice
SETTINGS: endpoint: median survival time; dose: 25.0 mg/kg/injection; schedule: Q01DX005 (ip); vehicle: saline with Tween-80; higher = longer survival
Inconclusive results and toxic doses are left out.
MEASURED_ENDPOINT: T/C

Below: 6 compounds and their reported T/C.
O=C(NN1C(=O)CSC1c1ccc(Cl)cc1Cl)c1ccncc1 (stereo unspecified): 101 % of control
COC(=O)c1c(C(=O)OC)c(-c2cccc(Cl)c2)n2c1CCC2: 98 % of control
CCCOc1cc2c(cc1C(C)c1ccc(OCC)cc1)OCO2 (stereo unspecified): 110 % of control
CCc1cccc(CC)c1N1C(=O)C(=O)C(C(C)=O)C1=O (stereo unspecified): 101 % of control
C[C@@]12N[C@H]3S[C@]1(C)c1ccccc1N2C[C@@H]3C#N: 99 % of control
COc1cc([N+](=O)[O-])ccc1C(=O)Nc1c2ccccc2nc2ccccc12: 95 % of control

In plain terms, COC(=O)Nc1nc2ccc(C(C)(O)c3cccs3)cc2[nH]1 (stereo unspecified) has a documented T/C of 100 % of control

In plain terms, `CN(C)CCN(Cc1ccco1)c1ccccn1` has a documented T/C of 100 % of control

* * *

Listed below: T/C values for each entry.
System: P388 leukemia ip, CD2F1 mice, survival T/C
TEST_METHOD_NOTES: NCI In Vivo Anticancer Drug Screen. Data for tumor model P388 Leukemia (intraperitoneal) in CD2F1 (CDF1) mice
SETTINGS: endpoint: median survival time; dose: 25.0 mg/kg/injection; schedule: Q04DX003 (ip); vehicle: saline with Tween-80; higher = longer survival
Inconclusive results and toxic doses are left out.

CN(C)CCCNC(=O)Cc1cc(O)c2c(c1O)C(=O)c1ccccc1C2=O: 106 % of control
Cc1ccccc1Nc1c2ccccc2nc2ccccc12: 95 % of control

Now let's try a different one.
In plain terms, `C/C(=N\NC(N)=S)c1cccc(/C(C)=N/NC(N)=S)n1` has a documented T/C of 93 % of control

* * *

Tested on: P388 leukemia ip, CD2F1 mice, survival T/C
TEST_METHOD_NOTES: NCI In Vivo Anticancer Drug Screen. Data for tumor model P388 Leukemia (intraperitoneal) in CD2F1 (CDF1) mice
SETTINGS: endpoint: median survival time; dose: 100.0 mg/kg/injection; schedule: Q01DX009 (ip); vehicle: saline with Tween-80; higher = longer survival
Toxic doses and inconclusive results are not listed.
Listed below: T/C values for each entry.

In plain terms, O=C1CCC(N2C(=O)c3ccccc3C2=O)C(=O)N1 (stereo unspecified) has a documented T/C of 92 % of control

In plain terms, `CNC(=O)c1ccccc1O` has a documented T/C of 103 % of control

In plain terms, OC(CCCCl)CC(O)(C(F)(F)F)C(F)(F)F (stereo unspecified) has a documented T/C of 110 % of control

In plain terms, `C[n+]1noc([O-])c1-c1ccccc1` has a documented T/C of 104 % of control

In plain terms, `O=C(Nc1cccc2ccccc12)Oc1cccc2cccnc12` has a documented T/C of 89 % of control

In plain terms, `Cc1c(C)[n+]([O-])c(-c2ccc(Cl)cc2)n1O` has a documented T/C of 100 % of control

* * *

Test system: P388 leukemia ip, CD2F1 mice, survival T/C
TEST_METHOD_NOTES: NCI In Vivo Anticancer Drug Screen. Data for tumor model P388 Leukemia (intraperitoneal) in CD2F1 (CDF1) mice
SETTINGS: endpoint: median survival time; dose: 200.0 mg/kg/injection; schedule: Q01DX005 (ip); vehicle: saline with Tween-80; higher = longer survival
Toxic doses and inconclusive results are not listed.
Listed below: T/C values for each entry.

Below: 6 molecules and their reported T/C.
CCN(CC)CCCC(C)N1CC2CCCCC2C1 (configuration not stated): 107 % of control
O=C(O)CCC(Nc1ncnc2nc[nH]c12)C(=O)O (configuration not stated): 89 % of control
CN(C)Nc1ncnc2c1ncn2C: 97 % of control
COc1ccc(CCNC(=O)c2ccc(CSc3ccc(Cl)cc3)o2)cc1OC: 93 % of control
C/C(N=NC(=S)N1CC(C)OC(C)C1)=C1\C=CC=CN1O (configuration not stated): 106 % of control
COc1ccc(C2NCc3c(sc4c3CCCC4)-n3cccc32)cc1 (configuration not stated): 87 % of control

In plain terms, `COC(=O)c1c(C(=O)OC)c(-c2cccc(Cl)c2)n2c1CCC2` has a documented T/C of 100 % of control

In plain terms, CC(=O)OCC1OC(Oc2ccc(C=C(C(C)=O)C(C)=O)cc2)C(OC(C)=O)C(OC(C)=O)C1OC(C)=O (configuration not stated) has a documented T/C of 104 % of control

In plain terms, `O=C(O)c1ccnc2ccc3ccccc3c12` has a documented T/C of 118 % of control

In plain terms, `O=C(Nc1ccc(S(=O)(=O)Nc2nccs2)cc1)c1ccncc1` has a documented T/C of 102 % of control

In plain terms, CCOC(=O)C1C2(C)NC(=O)C1(Cc1ccccc1)c1ccc(O)cc1O2 (configuration not stated) has a documented T/C of 95 % of control

In plain terms, `Cc1nn(C(=S)S)c(C)c1N=Nc1ccc(F)cc1` has a documented T/C of 101 % of control

In plain terms, CCN(CC)CCCC(C)Nc1ncnc2cc(Cl)ccc12 (configuration not stated) has a documented T/C of 94 % of control

In plain terms, `Oc1ccc(O)c2c(O)c3ccccc3c(O)c12` has a documented T/C of 93 % of control

In plain terms, CC1N(N2C(=O)CS(=O)(=O)C2C)C(=O)CS1(=O)=O (configuration not stated) has a documented T/C of 89 % of control

In plain terms, `COCCn1c(=N)c(C(=O)OC)nc2c3ccccc3ccc21` has a documented T/C of 101 % of control

In plain terms, `Fc1ccc2[nH]c3ncccc3c2c1` has a documented T/C of 100 % of control

In plain terms, `COc1ccc(C(=O)NCc2cccnc2)cc1C(=O)NCc1cccnc1` has a documented T/C of 99 % of control

In plain terms, `Cc1c(C=O)cc(-c2ccccc2)n1C` has a documented T/C of 91 % of control

In plain terms, `O=S1(=O)N=C(N2CCOCC2)c2ccccc21` has a documented T/C of 99 % of control

In plain terms, `C#CC(C)(C)Nc1c2ccccc2nc2ccccc12` has a documented T/C of 102 % of control

In plain terms, `O=C1C=C(c2ccccc2)S(=O)(=O)c2c(O)cccc21` has a documented T/C of 118 % of control

In plain terms, CC(=O)OC1SCCn2c1nc1ccccc1c2=O (configuration not stated) has a documented T/C of 99 % of control

In plain terms, `C[Si](C)(C)CN(Cc1ccccc1)C(=O)c1ccccc1[N+](=O)[O-]` has a documented T/C of 103 % of control

* * *

System: P388 leukemia ip, CD2F1 mice, survival T/C
TEST_METHOD_NOTES: NCI In Vivo Anticancer Drug Screen. Data for tumor model P388 Leukemia (intraperitoneal) in CD2F1 (CDF1) mice
SETTINGS: endpoint: median survival time; dose: 100.0 mg/kg/injection; schedule: Q01DX001 (ip); vehicle: Klucel (hydroxypropylcellulose) (HPC); higher = longer survival
Toxic doses and inconclusive results are not listed.
Listed below: T/C values for each entry.

COc1ccc(/C=C/C(C)=O)c(OC)c1: 108 % of control
O=[N+]([O-])c1ccc(N=Nc2ccc(N(CCCl)CCCl)cc2)c([N+](=O)[O-])c1: 106 % of control
CCC1(C(=O)Sc2ccccc2)OC1c1ccccc1 (configuration not stated): 89 % of control
CNC1CCc2cc(OC)ccc21 (configuration not stated): 102 % of control

The observed T/C for Cc1ccc(S(=O)(=O)C23N=NC(C)(C)C2C2CC3C3CN=NC32)cc1 (configuration not stated) when tested with P388 leukemia ip, CD2F1 mice, survival T/C stands at 103 % of control

The observed T/C for CC(=O)OC1CC2(OC(C)=O)CC(OC2=O)C1OC(C)=O (configuration not stated) when tested with P388 leukemia ip, CD2F1 mice, survival T/C stands at 100 % of control

* * *

Tested on: P388 leukemia ip, CD2F1 mice, survival T/C
TEST_METHOD_NOTES: NCI In Vivo Anticancer Drug Screen. Data for tumor model P388 Leukemia (intraperitoneal) in CD2F1 (CDF1) mice
SETTINGS: endpoint: median survival time; dose: 30.0 mg/kg/injection; schedule: Q01DX005 (ip); vehicle: Klucel (hydroxypropylcellulose) (HPC); higher = longer survival
Inconclusive results and toxic doses are left out.
Listed below: T/C values for each entry.

COc1ccc(C(NC(N)=O)c2cc3c(cc2OC(C)=O)OCO3)c(OC)c1 (stereo unspecified): 92 % of control
Cn1cc(C2=C(Cl)C(=O)N(c3cc(Cl)cc(Cl)c3)C2=O)c(=O)n(C)c1=O: 99 % of control
CC(C)=NNC1=NC(C)(C)P(=O)(NNc2ncccn2)S1 (stereo unspecified): 105 % of control
O=C1C(N=Nc2ccc([N+](=O)[O-])cc2)Sc2nc3ccccc3n21 (stereo unspecified): 90 % of control
C=C1C(=O)C[C@H]2[C@H]3CC[C@H](C(=O)O)[C@]12CC3(C)C: 119 % of control

Now let's try a different one.
In plain terms, `CC(C)[C@@H](C)/C=C/[C@@H](C)[C@H]1CC[C@@H]2[C@]1(C)CC[C@H]1[C@]23C=C[C@]2(C[C@@H](O)CC[C@]12C)OO3` has a documented T/C of 90 % of control
